# Test Method Notes: Volume of distribution at steady state in Balb/c mouse at 10 mg/kg, ip measured upto 24 hrs by LC-MS/MS analysis
# Assay type: ADME, organism-based
# Assay Context: in vivo

| Compound | Units Symbol | Vdss |
| --- | --- | --- |
| CN(CCCCCC(=O)Nc1ccc2c(c1)C(=O)N(C1CCC(=O)NC1=O)C2=O)CC[C@@H](c1ccccc1)n1cc(NC(=O)c2n[nH]c3c2CCC(C)(C)C3)cn1.O=C(O)C(F)(F)F (some centres not stated) | L/kg | 18.4 |
| CC1(C)CCc2c(C(=O)Nc3cnn([C@@H](CCN4CCN(CCC5CCN(c6ccc7c(c6)C(=O)N(C6CCC(=O)NC6=O)C7=O)CC5)CC4)c4ccccc4)c3)n[nH]c2C1.O=C(O)C(F)(F)F (some centres not stated) | L/kg | 3.06 |

The measured values listed here are drawn from ChEMBL document CHEMBL5380833.
